- Experiment Notes: small molecules captured by biotinylated probe aFGF10 – biochemical, small-molecule microarray, fluorescence 635/667, stem cell growth factor project, primary screen (AID 1071);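 note: score merges 667 nm spot intensity and signal to noise from triplicate slides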
- Details: higher = more signal
Label Not satisfied if composite z-score falls below 0.8; label Satisfied in every other case.

Worked set:
Molecule	Class Name
Cc1cc(C)c(C(O)C2C=CC3C(=O)N(c4ccccc4)C(=O)C3N2Nc2ccccc2F)c(C)c1 (stereo not given)	Not satisfied
CN(C)C(=O)[C@@]1(Cc2ccccc2)N=C(c2ccc(OCCCO)cc2)O[C@H]1c1ccccc1	Satisfied
COCC(=C=CC[C@H](O)c1ccc(OCCO)cc1)CCO	Not satisfied

Shifting focus to the molecule that follows.
Check the entry CC#CCO[Si](C#Cc1ccccc1)(C(C)C)C(C)C : does composite z-score equal or exceed 0.8?
Not satisfied

###

- Test system: Inhibin beta A chain (activin A)
- Experiment Notes: small molecules binding activin A – biochemical, small-molecule microarray, 635 nm fluorescence scan, primary screen (AID 1107);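 note: mouse activin A protein probed at 4.33 µg/mL on printed slides; score merges bound-protein fluorescence near 667 nm with spot signal-to-noise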
- Details: INHBA, higher = more signal
Measured composite z-score, listed per entry for reference.
# answer = number (no unit)

Compound	composite z-score
CCOC(=O)C1=CC[C@@H](c2ccccc2F)N(S(=O)(=O)c2ccc(C)cc2)[C@H]1c1ccccc1	0.713

With those in mind, consider the next compound.
Item under review: O=C(NCCN1CCOCC1)[C@@H]1c2ccccc2C(=O)N(Cc2ccccc2Cl)[C@H]1c1ccc(CO)cc1 . Reported composite z-score?
0.823

###

- Test system: glycogen synthase kinase-3 (GSK3A per assay name; protocol says GSK3B)
- Experiment Notes: compounds binding glycogen synthase kinase-3 – biochemical, small-molecule microarray, 635 nm fluorescence, GSK3A, primary screen (AID 1103); note: the record names both GSK3A and GSK3B
- Details: fluorescence 635 nm, higher = more signal
Endpoint: composite z-score
Give the figure only, with no unit attached.

Molecule	composite z-score
CCCCC(=C=CC[C@H](O)c1ccc(OCCO)cc1)CCO	-0.686
CC(C)C(CO)N1C(=O)[C@@H]2C3C(=O)OCCC/C=C\[C@H]3OC23C=CCN(c2ccc4ccccc4c2)C(=O)[C@@H]13 (stereo partly drawn)	-1.01
CC(C)N1C(=O)C[C@@](C(=O)NC2CC2)(c2ccc([N+](=O)[O-])cc2)[C@H]1c1ccc(CO)cc1	-0.3
CC[C@@H]1C=C(C(=O)O)[C@H](c2ccccc2)N1S(=O)(=O)c1ccc(C)cc1	0.52
CS(=O)(=O)CCOC(=O)C1=CC(c2ccc(CO)cc2)=CC(C2CC2)N(Cc2sc3ccccc3c2Cl)C=C1C(=O)OCCS(C)(=O)=O (stereo not drawn)	0.519
CC(C)N1C(=O)c2ccccc2[C@@H](C(=O)NCCN2CCOCC2)[C@@H]1c1ccc(CO)cc1	-1.05

glycogen synthase kinase-3 (GSK3A per assay name; protocol says GSK3B) / composite z-score / C=CCN1C(=O)[C@]2(CCC(=O)OC(C)(C)C)N=C(c3ccc(OCCCO)cc3)O[C@@H]2c2ccccc21 : value?
0.298

API: value(readout=composite z-score, system=glycogen synthase kinase-3 (GSK3A per assay name; protocol says GSK3B)) for record O=C1NC(=O)C2C1C=CC(C(O)c1ccco1)N2Nc1ccc(Cl)cc1Cl (stereo not drawn)
0.109

###

- Experiment Notes: probe aWnt5a binding to arrayed compounds – biochemical, biotinylated probe, 635/667 nm fluorescence, primary screen (AID 1113);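 note: score merges 667 nm fluorescence intensity with signal-to-noise per printed feature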
- Details: small-molecule microarray, higher = more signal
Endpoint: composite z-score
Could you respond with only the numeric value?

Examples with answers:
Compound	composite z-score
COc1ccc([Si](C)(C)[C@@H]2[C@@H](CC(=O)N(CCO)Cc3ccccc3)O[C@]3(C(=O)N(Cc4cccc(N5CCCCC5=O)c4)c4ccccc43)[C@H]2C)cc1	0.0825
CCOC(=O)C1=C[C@@H](C(C)C)N(S(=O)(=O)c2ccc(C)cc2)[C@H]1c1ccc(C(F)(F)F)cc1	-0.0607
COc1ccc(C#Cc2ccc3c(c2)[C@]2(C(=O)N3)[C@H](c3ccc(O)cc3)N3[C@H](c4ccccc4)[C@H](c4ccccc4)OC(=O)[C@H]3[C@@H]2C(=O)Nc2nc3ccccc3s2)cc1	-0.0685
CCOC(=O)C[C@H]1[C@H](OC(=O)c2ccc(C(=O)c3ccccc3)cc2)[C@@H](NC(=O)C2CCCCC2)c2cc(OCCCO)ccc2N1C(=O)c1ccc2ccccc2n1	0.0552

Param item = [N-]=[N+]=NCc1ccccc1[C@H]1OC(c2ccc(OCCCO)cc2)=N[C@@]1(Cc1ccccc1N=[N+]=[N-])C(=O)NCC(O)CO (stereo partly specified) ; retrieve measured composite z-score.
0.112

GET /values?readout=composite z-score&item= CCCCC(CC)C(O)C1C=CC2C(=O)N(c3ccccc3)C(=O)C2N1Nc1ccc(C#N)cc1 (stereo unspecified)
0.267
